- EXPERIMENTAL SYSTEM: Glucocorticoid Receptor (Homo sapiens)
- Sequence (P04150 whole entry): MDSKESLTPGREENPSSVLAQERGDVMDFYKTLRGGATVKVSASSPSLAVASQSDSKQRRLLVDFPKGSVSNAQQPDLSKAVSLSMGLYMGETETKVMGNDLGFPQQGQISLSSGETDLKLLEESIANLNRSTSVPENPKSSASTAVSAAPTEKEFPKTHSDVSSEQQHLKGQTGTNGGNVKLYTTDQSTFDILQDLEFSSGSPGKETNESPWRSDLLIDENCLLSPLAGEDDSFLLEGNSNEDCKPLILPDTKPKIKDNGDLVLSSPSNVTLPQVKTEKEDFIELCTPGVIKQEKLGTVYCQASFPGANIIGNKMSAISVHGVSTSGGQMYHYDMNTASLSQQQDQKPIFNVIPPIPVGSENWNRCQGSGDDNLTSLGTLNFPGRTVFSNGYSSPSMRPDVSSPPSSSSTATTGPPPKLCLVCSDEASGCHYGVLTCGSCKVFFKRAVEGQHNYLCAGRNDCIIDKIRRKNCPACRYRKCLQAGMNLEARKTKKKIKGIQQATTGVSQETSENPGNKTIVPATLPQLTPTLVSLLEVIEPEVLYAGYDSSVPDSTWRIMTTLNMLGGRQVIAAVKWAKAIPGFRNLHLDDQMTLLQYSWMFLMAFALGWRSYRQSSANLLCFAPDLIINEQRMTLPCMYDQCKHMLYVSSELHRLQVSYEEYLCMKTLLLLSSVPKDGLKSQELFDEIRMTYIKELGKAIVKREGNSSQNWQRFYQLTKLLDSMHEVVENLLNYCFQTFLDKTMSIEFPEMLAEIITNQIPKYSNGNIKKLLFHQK
- PROTOCOL TEXT: Target selectivity counterscreen, Glucocorticoid Receptor reporter assay
- EXPERIMENTAL PARAMETERS: receptor agonist at ~EC80
ASSAY METRIC: IC50 (µM)
Give your result in µM as a bare value.

INPUT: Request the reported IC50 associated with CCn1c(CCCc2ccc(-c3ccc(NS(=O)(=O)c4ccccc4)cn3)cc2)nn(Cc2ccc(C(C)(C)C)cc2)c1=O
OUTPUT: 36.5

---

- EXPERIMENTAL SYSTEM: Human PPARα (Homo sapiens, UniProt Q07869)
- Construct: host or cells: proprietary non-human mammalian cells
- Sequence (Q07869 whole entry): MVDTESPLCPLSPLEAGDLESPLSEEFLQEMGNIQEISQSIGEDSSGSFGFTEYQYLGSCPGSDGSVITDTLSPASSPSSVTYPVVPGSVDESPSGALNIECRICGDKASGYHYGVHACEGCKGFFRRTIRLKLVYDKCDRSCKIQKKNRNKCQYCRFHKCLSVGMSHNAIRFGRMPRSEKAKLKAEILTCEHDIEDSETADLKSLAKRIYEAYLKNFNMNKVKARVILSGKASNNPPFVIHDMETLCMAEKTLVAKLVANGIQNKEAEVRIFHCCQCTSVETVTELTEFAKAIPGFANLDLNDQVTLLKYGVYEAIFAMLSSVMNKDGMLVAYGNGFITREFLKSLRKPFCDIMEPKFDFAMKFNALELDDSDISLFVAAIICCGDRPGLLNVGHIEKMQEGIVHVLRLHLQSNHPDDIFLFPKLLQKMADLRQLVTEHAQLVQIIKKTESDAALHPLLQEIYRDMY
- PROTOCOL TEXT: Human PPARα Reporter Assay (luciferase)
- Assay type: cell-based
- EXPERIMENTAL PARAMETERS: human PPARα reporter cells, overnight incubation, antagonism; read-out: Luciferase IC50
pIC50: −log10 of the molar value.
ASSAY METRIC: pIC50

[A] CCn1c(CCCc2ccc(-c3ncc(OC)c(C(=O)O)n3)cc2)nn(Cc2ccc(C(C)(C)C)cc2)c1=O
[B] CCn1c(CCCc2ccc(-c3ccc(OC)c(NS(=O)(=O)c4ccc(Cl)nc4)n3)cc2)nn(Cc2ccc(C(C)(C)C)cc2)c1=O
[C] CCn1c(CCCc2ccc(-c3ccc(OC)c(C(=O)O)n3)cc2)nn(Cc2ccc(C(C)(C)C)cc2)c1=O
[D] CCn1c(CCCc2ccc(-c3cccc(CCC(=O)O)c3)cc2)nn(Cc2ccc(C(C)(C)C)cc2)c1=O
[E] CCn1c(CCCc2ccc(-c3cccc(/C=C/C(=O)O)c3)cc2)nn(Cc2ccc(C(C)(C)C)cc2)c1=O
INPUT: Please produce an ascending ranking of these compounds based on pIC50. Give your ranking as a list of the labels in the requested order.
OUTPUT: D, E, A, C, B
(D: 5.56, E: 5.84, A: 6.07, C: 7.05, B: 8.10)
